- experimental.details: Lipophilicity, log P of the compound
- Assay type: physicochemical
- experimental.setup: octanol/water
// label = criterion met if logP is not less than 4, otherwise criterion not met

Task item: Is logP for `COc1ccc(-c2nnc(-c3ccc(OC)c(OCCCCOc4cc5c(cc4OC)C(=O)N4CCC[C@H]4C=N5)c3)o2)cc1OC` at or above 4?
Reply: criterion met

Task item: Is logP for `COc1ccc(-c2nnc(-c3ccc(C(F)(F)F)cc3)o2)cc1OCCCCCOc1cc2c(cc1OC)C(=O)N1CCC[C@H]1C=N2` at or above 4?
Reply: criterion met

Task item: Is logP for `COc1ccc(-c2nnc(-c3cc(OC)c(OC)c(OC)c3)o2)cc1OCCCCCOc1cc2c(cc1OC)C(=O)N1CCC[C@H]1C=N2` at or above 4?
Reply: criterion met

Task item: Is logP for `COc1ccc(-c2nnc(-c3ccc(OC)c(OCCCCCOc4cc5c(cc4OC)C(=O)N4CCC[C@H]4C=N5)c3)o2)cc1OC` at or above 4?
Reply: criterion met

Task item: Is logP for `COc1ccc(-c2nnc(-c3ccc(C(F)(F)F)cc3)o2)cc1OCCCOc1cc2c(cc1OC)C(=O)N1CCC[C@H]1C=N2` at or above 4?
Reply: criterion met

Task item: Is logP for `COc1ccc(-c2nnc(-c3ccc(F)cc3)o2)cc1OCCCCOc1cc2c(cc1OC)C(=O)N1CCC[C@H]1C=N2` at or above 4?
Reply: criterion met

Task item: Is logP for `COc1ccc(-c2nnc(-c3ccc(F)cc3)o2)cc1OCCCCCOc1cc2c(cc1OC)C(=O)N1CCC[C@H]1C=N2` at or above 4?
Reply: criterion met

Task item: Is logP for `COc1ccc(-c2nnc(-c3ccc(F)cc3)o2)cc1OCCCOc1cc2c(cc1OC)C(=O)N1CCC[C@H]1C=N2` at or above 4?
Reply: criterion met

Task item: Is logP for `COc1ccc(-c2nnc(-c3cc(OC)c(OC)c(OC)c3)o2)cc1OCCCOc1cc2c(cc1OC)C(=O)N1CCC[C@H]1C=N2` at or above 4?
Reply: criterion not met

Task item: Is logP for `COc1cc2c(cc1O)N=C[C@@H]1CCCN1C2=O` at or above 4?
Reply: criterion not met

Task item: Is logP for `COc1ccc(-c2nnc(-c3ccc(C(F)(F)F)cc3)o2)cc1OCCCCOc1cc2c(cc1OC)C(=O)N1CCC[C@H]1C=N2` at or above 4?
Reply: criterion met

Task item: Is logP for `COc1ccc(-c2nnc(-c3cc(OC)c(OC)c(OC)c3)o2)cc1OCCCCOc1cc2c(cc1OC)C(=O)N1CCC[C@H]1C=N2` at or above 4?
Reply: criterion met
